Cited source: patent US20240158370A1

measurement_target: CK1α (Homo sapiens, UniProt P48729+Q96SW2)
Construct: CSNK1A1-HiBit KI HEK293(LgBit) Cells; host or cells: HEK293(LgBit) knock-in cells
Sequence (P48729 whole entry): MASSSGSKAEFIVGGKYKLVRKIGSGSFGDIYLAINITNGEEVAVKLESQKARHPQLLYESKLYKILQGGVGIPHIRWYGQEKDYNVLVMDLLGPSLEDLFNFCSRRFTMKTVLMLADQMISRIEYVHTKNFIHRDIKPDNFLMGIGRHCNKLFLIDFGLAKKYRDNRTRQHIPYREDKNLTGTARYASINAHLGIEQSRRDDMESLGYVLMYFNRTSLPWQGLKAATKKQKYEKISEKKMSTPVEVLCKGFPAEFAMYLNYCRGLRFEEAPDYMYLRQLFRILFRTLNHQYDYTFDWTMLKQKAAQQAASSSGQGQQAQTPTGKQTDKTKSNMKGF
Sequence (Q96SW2 whole entry): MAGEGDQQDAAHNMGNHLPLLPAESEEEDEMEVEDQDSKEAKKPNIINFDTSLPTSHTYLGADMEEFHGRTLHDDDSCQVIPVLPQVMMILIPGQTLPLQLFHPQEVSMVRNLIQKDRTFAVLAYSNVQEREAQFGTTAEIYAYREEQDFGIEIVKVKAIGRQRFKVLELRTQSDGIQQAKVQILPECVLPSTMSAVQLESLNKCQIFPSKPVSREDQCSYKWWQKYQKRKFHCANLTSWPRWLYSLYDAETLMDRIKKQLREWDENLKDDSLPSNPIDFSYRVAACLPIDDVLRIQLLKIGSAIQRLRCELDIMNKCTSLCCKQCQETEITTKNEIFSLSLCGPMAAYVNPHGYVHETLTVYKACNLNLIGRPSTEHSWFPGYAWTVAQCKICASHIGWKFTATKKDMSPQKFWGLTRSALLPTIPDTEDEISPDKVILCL
Sequence (Q16531 whole entry partner): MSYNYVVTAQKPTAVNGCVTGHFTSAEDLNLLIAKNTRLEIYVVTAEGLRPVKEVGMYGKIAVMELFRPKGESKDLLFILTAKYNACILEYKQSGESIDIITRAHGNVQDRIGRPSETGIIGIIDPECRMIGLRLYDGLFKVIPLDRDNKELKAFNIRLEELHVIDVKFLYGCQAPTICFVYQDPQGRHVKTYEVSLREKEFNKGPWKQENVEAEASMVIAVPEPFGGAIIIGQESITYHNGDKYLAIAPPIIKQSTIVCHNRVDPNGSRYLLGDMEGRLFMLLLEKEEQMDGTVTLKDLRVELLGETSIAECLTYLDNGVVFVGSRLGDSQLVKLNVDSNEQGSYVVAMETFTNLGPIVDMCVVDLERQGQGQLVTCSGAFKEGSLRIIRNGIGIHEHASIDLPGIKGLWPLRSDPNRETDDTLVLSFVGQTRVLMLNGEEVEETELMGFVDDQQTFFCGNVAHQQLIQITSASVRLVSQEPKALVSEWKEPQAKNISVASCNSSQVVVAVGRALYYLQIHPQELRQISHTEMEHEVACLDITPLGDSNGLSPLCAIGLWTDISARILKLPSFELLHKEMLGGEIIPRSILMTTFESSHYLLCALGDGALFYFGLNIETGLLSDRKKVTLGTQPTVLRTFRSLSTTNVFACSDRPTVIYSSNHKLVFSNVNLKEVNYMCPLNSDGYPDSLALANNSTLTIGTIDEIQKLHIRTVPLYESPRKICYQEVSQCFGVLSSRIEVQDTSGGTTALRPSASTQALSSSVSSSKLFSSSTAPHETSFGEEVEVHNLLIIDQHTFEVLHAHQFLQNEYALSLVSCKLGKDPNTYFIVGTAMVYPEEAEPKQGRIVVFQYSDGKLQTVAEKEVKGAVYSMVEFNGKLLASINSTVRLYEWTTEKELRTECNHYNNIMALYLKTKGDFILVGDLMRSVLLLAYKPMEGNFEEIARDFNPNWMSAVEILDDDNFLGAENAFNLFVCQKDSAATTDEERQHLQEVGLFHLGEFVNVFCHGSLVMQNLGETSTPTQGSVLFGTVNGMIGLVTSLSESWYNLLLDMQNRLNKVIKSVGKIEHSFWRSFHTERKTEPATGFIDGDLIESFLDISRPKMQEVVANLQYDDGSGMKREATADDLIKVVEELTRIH
procedure_text: HiBiT degradation assay, CK1α, Procedure A
Assay type: cell-based
condition_description: six hours
readout_label: CK1α Ymin

Give its CK1α Ymin value. Item: COc1ccc(Cl)c(-c2nc(-c3ccc4c(c3)CN(C3CCC(=O)NC3=O)C4=O)cn2C)c1 (centres unmarked)
C (C = 0-10% remaining)

Moving on to Cn1cnc(-c2ccc3c(c2)CN(C2CCC(=O)NC2=O)C3=O)c1-c1cn[nH]c1 (centres unmarked)
C (C = 0-10% remaining)

----------
measurement_target: GSPT1 (Homo sapiens, UniProt P15170+Q96SW2)
Sequence (P15170 whole entry): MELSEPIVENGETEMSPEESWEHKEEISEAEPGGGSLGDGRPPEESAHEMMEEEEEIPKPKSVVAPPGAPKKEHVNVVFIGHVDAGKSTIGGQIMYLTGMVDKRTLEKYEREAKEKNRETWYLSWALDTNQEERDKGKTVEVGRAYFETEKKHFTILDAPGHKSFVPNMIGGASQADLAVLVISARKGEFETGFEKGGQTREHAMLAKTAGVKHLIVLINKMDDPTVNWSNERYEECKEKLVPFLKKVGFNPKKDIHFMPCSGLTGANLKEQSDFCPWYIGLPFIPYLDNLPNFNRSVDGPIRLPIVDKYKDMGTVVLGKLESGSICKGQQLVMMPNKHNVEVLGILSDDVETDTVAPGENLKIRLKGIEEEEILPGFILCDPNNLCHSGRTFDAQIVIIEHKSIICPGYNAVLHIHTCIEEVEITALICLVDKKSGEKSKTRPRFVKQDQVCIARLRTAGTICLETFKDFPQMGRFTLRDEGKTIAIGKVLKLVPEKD
Sequence (Q96SW2 whole entry): as the sequence (Q96SW2 whole entry) above
Sequence (Q16531 whole entry partner): as the sequence (Q16531 whole entry partner) above
procedure_text: HiBiT degradation assay, GSPT1, Procedure A
Format: cell-based
Design: HiBit-GSPT1 KI HEK293(LgBit) Cells; host or cells: HEK293(LgBit) knock-in cells
condition_description: six hours incubation
# DC50 annotations

Below, each entry is followed by its recorded DC50 result.
Any idea what its DC50 is? The compound is Cc1ccc(-c2c(-c3ccc4c(c3)CN(C3CCC(=O)NC3=O)C4=O)ncn2C)cc1CO (centres unmarked)
≥ 25 nM

Entry to check: Cn1cnc(-c2ccc3c(c2)CN(C2CCC(=O)NC2=O)C3=O)c1-c1cccc(C(F)(F)F)c1 (centres unmarked)
≥ 25 nM

Next up: Cc1sccc1-c1c(-c2ccc3c(c2)CN(C2CCC(=O)NC2=O)C3=O)cnn1C (centres unmarked)
≥ 25 nM

Record: Cn1cnc(-c2ccc3c(c2)CN(C2CCC(=O)NC2=O)C3=O)c1-c1ccc(F)cc1Cl (centres unmarked)
< 25 nM

Would you mind doing COc1ccc(C)cc1-c1c(-c2ccc3c(c2)CN(C2CCC(=O)NC2=O)C3=O)cnn1C (centres unmarked) as well?
< 25 nM

Others:
Request the reported DC50 associated with Cc1cccc(-c2c(-c3ccc4c(c3)CN(C3CCC(=O)NC3=O)C4=O)cnn2C)c1 (centres unmarked)
≥ 25 nM

Now the same for Cn1ncc(-c2ccc3c(c2)CN(C2CCC(=O)NC2=O)C3=O)c1-c1ccsc1Cl (centres unmarked)
≥ 25 nM

Now the same for Cn1cnc(-c2ccc3c(c2)CN(C2CCC(=O)NC2=O)C3=O)c1-c1cccc(C#N)c1 (centres unmarked)
≥ 25 nM

----------
measurement_target: CK1α (Homo sapiens, UniProt P48729+Q96SW2)
Construct: CSNK1A1-HiBit KI HEK293(LgBit) Cells; host or cells: HEK293(LgBit) knock-in cells
procedure_text: HiBiT degradation assay, CK1α, Procedure A
Type: cell-based
condition_description: six hours incubation
readout_label: DC50

Record request: DC50 value, item O=C1CCC(N2Cc3cc(-c4c[nH]nc4C4CC4)ccc3C2=O)C(=O)N1 (centres unmarked)
≥ 25 nM

Also Cn1cnc(-c2ccc3c(c2)CN(C2CCC(=O)NC2=O)C3=O)c1-c1cc(F)ccc1F (centres unmarked) , if possible.
< 25 nM

And Cn1cnc(-c2ccc3c(c2)CN(C2CCC(=O)NC2=O)C3=O)c1-c1ccc(C(F)F)cc1 (centres unmarked) ?
< 25 nM

Others:
Record request: DC50 value, item Cn1cnc(-c2ccc3c(c2)CN(C2CCC(=O)NC2=O)C3=O)c1-c1ccncc1 (centres unmarked)
< 25 nM

Now the compound COc1cccc(-c2c(-c3ccc4c(c3)CN(C3CCC(=O)NC3=O)C4=O)cnn2C)c1 (centres unmarked)
< 25 nM

----------
Quick list: DC50 per entry.
measurement_target: GSPT1 (Homo sapiens, UniProt P15170+Q96SW2)
procedure_text: HiBiT degradation assay, GSPT1, Procedure A
Assay type: cell-based
Design: HiBit-GSPT1 KI HEK293(LgBit) Cells; host or cells: HEK293(LgBit) knock-in cells
condition_description: six hours

Some solved entries appear below for comparison.
Form field: reported DC50 of Cn1cnc(-c2ccc3c(c2)CN(C2CCC(=O)NC2=O)C3=O)c1-c1ccc(S(=O)(=O)NC2CCCCC2)cc1 (stereo not shown)
≥ 25 nM

Query Cc1cc(-c2c(-c3ccc4c(c3)CN(C3CCC(=O)NC3=O)C4=O)cnn2C)n(C)n1 (stereo not shown) next
≥ 25 nM

Next compound: Cn1nc(-c2ccc3c(c2)CN(C2CCC(=O)NC2=O)C3=O)nc1[C@H]1CC[C@@H](C)CC1 (stereo partly shown)
< 25 nM

Similarly, [2H]C([2H])([2H])n1ncc(-c2ccc3c(c2)CN(C2CCC(=O)NC2=O)C3=O)c1-c1ccc(OC)cc1 (stereo not shown) ?
≥ 25 nM

Please turn your attention to the following entry.
Quick check: DC50 of Cc1ccc(-c2c(-c3ccc4c(c3)CN(C3CCC(=O)NC3=O)C4=O)ncn2C)cn1 (stereo not shown) ?
≥ 25 nM

----------
measurement_target: CK1α (Homo sapiens, UniProt P48729+Q96SW2)
Construct: CSNK1A1-HiBit KI HEK293(LgBit) Cells; host or cells: HEK293(LgBit) knock-in cells
procedure_text: HiBiT degradation assay, CK1α, Procedure A
Format: cell-based
condition_description: six hours
Documented DC50 across a set of compounds

Record excerpt, results attached:
Return reported DC50; argument: Cn1cc(-c2ccc3c(c2)CN(C2CCC(=O)NC2=O)C3=O)nc1-c1ccc(C2CCCCC2)cc1 (centres unmarked)
< 25 nM

Could you do the same for Cn1c(C2CCOCC2)nc(-c2ccc3c(c2)CN(C2CCC(=O)NC2=O)C3=O)c1C1CC1 (centres unmarked) , please?
< 25 nM

Okay, and Cn1cc(-c2ccc3c(c2)CN(C2CCC(=O)NC2=O)C3=O)nc1C12CC3CC(CC(C3)C1)C2 (centres unmarked) ?
< 25 nM

Note, next up: COc1ccc(-c2nn(C(F)F)cc2-c2ccc3c(c2)CN(C2CCC(=O)NC2=O)C3=O)c(Cl)c1 (centres unmarked)
< 25 nM

Item: Cn1cc(-c2ccc3c(c2)CN(C2CCC(=O)NC2=O)C3=O)nc1-c1cccc(F)c1 (centres unmarked)
< 25 nM

New cases:
Returns the measured DC50 for the input compound. Input: Cn1cc(-c2ccc3c(c2)CN(C2CCC(=O)NC2=O)C3=O)nc1-c1cccs1 (centres unmarked)
< 25 nM

What would you report for Cn1ncc(-c2ccc3c(c2)CN(C2CCC(=O)NC2=O)C3=O)c1-c1cnn(CC(F)F)c1 (centres unmarked) ?
≥ 25 nM

Same read-out for Cn1c(C2CCOCC2)nc(-c2ccc3c(c2)CN(C2CCC(=O)NC2=O)C3=O)c1-c1cncnc1 (centres unmarked) ?
≥ 25 nM

----------
measurement_target: GSPT1 (Homo sapiens, UniProt P15170+Q96SW2)
procedure_text: HiBiT degradation assay, GSPT1, Procedure A
Type: cell-based
Set-up: HiBit-GSPT1 KI HEK293(LgBit) Cells; host or cells: HEK293(LgBit) knock-in cells
condition_description: six hours incubation
Reported DC50 values for a set of compounds

I am curious: what DC50 value has been reported for Cc1c(-c2ccc3c(c2)CN(C2CCC(=O)NC2=O)C3=O)nc(-c2ccccc2)n1C (stereo not shown) ?
≥ 25 nM

Now the same for Cc1ccc(-c2c(-c3ccc4c(c3)CN(C3CCC(=O)NC3=O)C4=O)cnn2C)c(Cl)c1 (stereo not shown)
≥ 25 nM

What do you get for Cn1c(C(F)(F)F)nc(-c2ccc3c(c2)CN(C2CCC(=O)NC2=O)C3=O)c1-c1ccccc1 (stereo not shown) ?
< 25 nM

Try the compound Cn1ncc(-c2ccc3c(c2)CN(C2CCC(=O)NC2=O)C3=O)c1-c1cccc(F)c1 (stereo not shown)
≥ 25 nM

Let us now turn to Cc1nn(C)c(-c2ccc3c(c2)CN(C2CCC(=O)NC2=O)C3=O)c1-c1ccccc1 (stereo not shown)
≥ 25 nM

----------
measurement_target: GSPT1 (Homo sapiens, UniProt P15170+Q96SW2)
procedure_text: HiBiT degradation assay, GSPT1, Procedure A
Format: cell-based
Set-up: HiBit-GSPT1 KI HEK293(LgBit) Cells; host or cells: HEK293(LgBit) knock-in cells
condition_description: six hours
Listing of entries alongside the reported DC50.

Completed entries (count: 2):
Give the measured DC50 of Cn1cnc(-c2ccc3c(c2)CN(C2CCC(=O)NC2=O)C3=O)c1-c1cccc2cc[nH]c12 (stereo not shown) [Example 526] .
< 25 nM

Would you mind doing CN1CCC(c2c(-c3ccc4c(c3)CN(C3CCC(=O)NC3=O)C4=O)cnn2C)CC1 (stereo not shown) [Example 590] as well?
≥ 25 nM

Continuing:
Given the entry Cn1cc(-c2ccc3c(c2)CN(C2CCC(=O)NC2=O)C3=O)nc1C1CCOCC1 (stereo not shown) [Example 532] , report its measured DC50.
≥ 25 nM

Next record, please: O=C1CCC(N2Cc3cc(-n4cnc(-c5ccccc5)c4)ccc3C2=O)C(=O)N1 (stereo not shown) [Example 552]
≥ 25 nM
